// values below are reported MIC80
- System: Kluyveromyces marxianus
- PROCEDURE_TEXT: Antifungal activity against Candida kefyr by micro-broth dilution method
- Assay type: functional

Recorded results for 5 compounds are shown here.
>>> df
                                   compound  measured_result
0  O=C(/C=C/c1cccc(F)c1)Nc1ccc(-n2cnn(CC(O)(Cn3cncn3)c3ccc(F)cc3F)c2=O)cc1 (single isomer, unassigned)       > 64 µg/mL
1  Cc1cccc(C(=O)Nc2ccc(-n3cnn(CC(O)(Cn4cncn4)c4ccc(F)cc4F)c3=O)cc2)c1 (single isomer, unassigned)       > 64 µg/mL
2  Cc1cccc(/C=C/C(=O)Nc2ccc(-n3cnn(CC(O)(Cn4cncn4)c4ccc(F)cc4F)c3=O)cc2)c1C (single isomer, unassigned)       > 64 µg/mL
3  Cc1ccc(/C=C/C(=O)Nc2ccc(-n3cnn(CC(O)(Cn4cncn4)c4ccc(F)cc4F)c3=O)cc2)cc1 (single isomer, unassigned)       > 64 µg/mL
4  CCCCc1ccc(C(=O)Nc2ccc(-n3cnn(CC(O)(Cn4cncn4)c4ccc(F)cc4F)c3=O)cc2)cc1 (single isomer, unassigned)       > 64 µg/mL

Exercise: Reported MIC80, compound O=C(Nc1ccc(-n2cnn(CC(O)(Cn3cncn3)c3ccc(F)cc3F)c2=O)cc1)c1ccccc1F (single isomer, unassigned) : ____
Solution: 1 µg/mL

Exercise: Reported MIC80, compound COc1ccc(/C=C/C(=O)Nc2ccc(-n3cnn(CC(O)(Cn4cncn4)c4ccc(F)cc4F)c3=O)cc2)cc1 (single isomer, unassigned) : ____
Solution: > 64 µg/mL

Exercise: Reported MIC80, compound O=C(/C=C/c1ccc(Cl)c(Cl)c1)Nc1ccc(-n2cnn(CC(O)(Cn3cncn3)c3ccc(F)cc3F)c2=O)cc1 (single isomer, unassigned) : ____
Solution: > 64 µg/mL

Exercise: Reported MIC80, compound CC(C)c1ccc(C(=O)Nc2ccc(-n3cnn(CC(O)(Cn4cncn4)c4ccc(F)cc4F)c3=O)cc2)cc1 (single isomer, unassigned) : ____
Solution: > 64 µg/mL

Exercise: Reported MIC80, compound O=C(Nc1ccc(-n2cnn(CC(O)(Cn3cncn3)c3ccc(F)cc3F)c2=O)cc1)c1ccc(F)cc1 (single isomer, unassigned) : ____
Solution: 4 µg/mL

Exercise: Reported MIC80, compound O=C(Nc1ccc(-n2cnn(CC(O)(Cn3cncn3)c3ccc(F)cc3F)c2=O)cc1)c1ccc(OC(F)(F)F)cc1 (single isomer, unassigned) : ____
Solution: > 64 µg/mL

The reported measurements were obtained from ChEMBL document CHEMBL1806394.
